tested on: WNK4; settings: concentration: 1 μM, replicates: in singlicate; n = 1
%Inh strictly under 20% means Criterion met; at 20% or over means Criterion not met.

MOLECULE | CLASSIFICATION
CC(C)c1ccc(O)cc1Nc1ccnc2ccc(C(F)(F)F)cc12 [GW482059] | Criterion met
COc1ccc(Nc2nccc(N3CCC(NC(=O)C(C)c4ccc(Cl)cc4)C3)n2)cc1 (stereo not drawn) [GSK1379735] | Criterion met
Cn1cnc2c(N)ncnc21 [SKF-97623] | Criterion met
Cc1ccc(NC(=O)Nc2ccccc2)cc1-c1ccc(C(=O)Nc2ccncc2)cc1 [GSK1398471] | Criterion met

hey, is %Inh for CCn1c(-c2ccccc2)nc2cnccc21 [SB-733416] lower than 20% or not?
Criterion met

Criterion: %Inh strictly below 20%. Is it met by Cc1ccc(NC(=O)Nc2ccccc2F)cc1-c1ccc(C(=O)Nc2ccncc2)cc1 [GSK1398477] ?
Criterion met

---

tested on: FAK; construct: gene PTK2; settings: concentration: 1 μM, replicates: in singlicate; n = 1
Catalogue of compounds with associated %Inh
Give the quantity in %, number only.

Known results for compounds:
COMPOUND | %Inh [%]
Cc1ccc(NC(=O)Nc2ccccc2)cc1-c1ccc(C(=O)Nc2ccncc2)cc1 | 0
CS(=O)(=O)Cc1ccc(Nc2nccc(-c3c(-c4cccc(NC(=O)C5CCCCC5)c4)nn4ncccc34)n2)cc1 | 0
COc1ccc(Nc2nccc(NCCNC(=O)Nc3cc(C)ccc3C)n2)cc1 | 0
FC(F)(F)c1ccccc1-c1cc(-c2c[nH]nc2-c2ccccn2)ccn1 | 0
CC(=O)c1c(C)c2cnc(Nc3ccn(C)n3)nc2n(C2CCCC2)c1=O | 0
Fc1ccc(-c2nn3cccc(F)c3c2-c2ccncc2)cc1 | 1
COc1ccc(CSc2nnc(-c3ccc4nccn4c3)o2)cc1C(F)(F)F | 0
CNC(=O)c1ccc(C)c(-n2c(C)cc(OCc3ccc(F)cc3F)c(Br)c2=O)c1 | 0
O=c1cc(N2CCOCC2)nc2n(Cc3cccc(Cl)c3Cl)c3ccccc3n12 | 0
COc1nccc(-c2c(-c3ccc(F)cc3)ncn2CCCN2CCOCC2)n1 | 0

Looking up Cc1cnc(N)c(/C=C/c2cncc(C(=O)NCCc3ccc(Cl)cc3Cl)c2)c1.Cl , I see its %Inh listed as 0

For reference, reported %Inh for Cc1ccc(NC(=O)Nc2ccc(Cl)c(C(F)(F)F)c2)cc1-c1ccc(C(=O)Nc2ccncc2)cc1 stands at 0

What the record says about Fc1ccc(-c2nc[nH]c2-c2ccncc2)cc1 : %Inh is 0

Please fill in: %Inh reported for CCn1c(-c2ccccc2)nc2cnccc21 = 2

Documented %Inh of CS(=O)(=O)CCNCc1nc(-c2ccc3ncnc(Nc4ccc(OCc5ccccc5)c(Cl)c4)c3c2)cs1.Cl : 0

Entry Cl.Cl.Cl.N#Cc1ccc(CCNc2nccc(-c3cccc(CN4CCNCC4)c3)n2)cc1 — recorded %Inh = 56

Data point: CNc1nc(-c2ccc3c(N)n[nH]c3c2)cc(N2C[C@@H](C(=O)NC3CCCCC3)OC[C@H]2C)n1 ; %Inh = 0

Briefly, %Inh measured for COC(=O)C(Cc1ccccc1)NC(=O)NC1CCN(c2ccnc(Nc3ccc(F)cc3)n2)C1 (stereo not drawn) : 0

---

test system: MAK;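 also: kd values determined as follow-up on hits from a single-replicate KINOMEscan panel screen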
Each record here notes measured Kd.

COMPOUND | Kd
COc1cccc(NC(=O)Nc2ccc(C)c(-c3ccc(C(=O)Nc4ccncc4)cc3)c2)c1 [GSK1398474] | > 10 µM

Consider the additional compound presented here.
Sample COc1ccc(Nc2nccc(N3CCC(NC(=O)c4cc5ccccc5s4)C3)n2)cc1 (centres unmarked) [GSK1379738] ; Kd observed: > 10 µM

---

Reported %Inh is given for each of the following compounds.
system: MYLK4; conditions: concentration: 1 μM, replicates: in singlicate; n = 1
Answer format: numeric, % implied, no suffix.

COMPOUND | TARGET | %Inh / %
COc1ccc(-c2coc3ccc(-c4nnc(C)o4)cc23)cc1 | MYLK4 | 14
c1ccc(-c2ccnc3[nH]ccc23)cc1 [SB-693578] | MYLK4 | 0
COc1ccc2cc(-c3nc(-c4ccccc4C(C)C)[nH]c3-c3ccncc3)ccc2c1 [SB-660566] | MYLK4 | 4
CC(=O)c1c(C)c2cnc(Nc3ccn(C)n3)nc2n(C2CCCC2)c1=O | MYLK4 | 0

Reported %Inh ( CSc1ccc(-c2nc3n(c2-c2ccncc2)CCC3)cc1 [SKF-105561] ) = 0

Looking up Cc1c(Cn2c(C)c(C)n3c(=O)cc(N4CCOCC4)nc23)cccc1C(F)(F)F [GSK2328680] , I see its %Inh listed as 0

Data point: COc1cccc(C2=C(Nc3cc(Cl)c(O)c(Cl)c3)C(=O)NC2=O)c1 [SB-390767] ; %Inh = 9

---

test system: QSK; conditions: concentration: 1 μM, replicates: in singlicate; n = 1
PARAMETER: %Inh (%)
Your answer is read as %, so omit the unit and give the number.

MOLECULE | UNITS SYMBOL | NUMERIC VALUE
CCCCc1nn2ncccc2c1-c1ccnc(NC2CC2)n1 | % | 0
Cc1ccccc1Cn1ccn2c(=O)cc(N3CCOCC3)nc12 | % | 0
COc1ccc(Nc2nccc(N3CCC(NC(=O)C(C)c4ccc(Cl)cc4)CC3)n2)cc1 (stereo not shown) | % | 0
CC[C@@H]1CO[C@H](C(=O)Nc2ccccc2)CN1c1cc(-c2ccc3c(N)n[nH]c3c2)nc(NC)n1 | % | 0
COc1ccc(CSc2nnc(-c3ccc4nccn4c3)o2)cc1C(F)(F)F | % | 11

Cn1cnc2c(N)ncnc21 has a reported %Inh of 0

For reference, reported %Inh for Cc1ccccc1-c1cc(-c2c[nH]nc2-c2ccccn2)ccn1 stands at 0

For NS(=O)(=O)c1cccc(N/C=C2\C(=O)Nc3ccc(S(=O)(=O)Cc4c(Cl)cccc4Cl)cc32)c1 the molecule record lists %Inh as 11

Form: molecule = Cc1ccc(NC(=O)Nc2ccccc2F)cc1-c1ccc(C(=O)Nc2ccncc2)cc1 ; %Inh = 20

# %Inh (molecule: COc1ccc2cc(-c3nc(-c4ccccc4C(C)C)[nH]c3-c3ccncc3)ccc2c1 ) is 2

Form field %Inh, entry CCn1c(-c2ccccc2)nc2cnccc21 : 9

CC(=O)c1cccc(NC(=O)NC2CCN(c3ccnc(Nc4ccc(F)cc4)n3)C2)c1 (stereo not shown) yielded %Inh of 4

Measured %Inh of Cc1ccc(NC(=O)Nc2ccc(Cl)cc2)cc1-c1ccc(C(=O)Nc2ccncc2)cc1 : 1

Sure, the documented %Inh for O=c1cc(N2CCOCC2)nc2n(Cc3cccc(Cl)c3Cl)c3ccccc3n12 is 0

The molecule listed as Fc1ccc(-c2nc[nH]c2-c2ccncc2)cc1 shows %Inh equal to 17

// recorded %Inh for Cc1ccc(-c2nc(Nc3ccncc3)c3ccccc3n2)s1 : 6

The measured %Inh associated with COc1cc2ncnc(Nc3cccc(Br)c3)c2cc1OC.Cl reads 11

%Inh for Cc1ccc(NC(=O)c2ccc(Cl)cc2)cc1-c1ccc(C(=O)Nc2ccncc2)cc1 is 0

Recorded %Inh (molecule COc1ccc(Nc2nccc(-c3ccc(NC(=O)c4cc5cc(F)ccc5[nH]4)cc3)n2)cc1 ): 0

---

tested on: HIPK2; conditions: concentration: 1 μM, replicates: in singlicate; n = 1
Below is a list of entries, each paired with its recorded %Inh value.
The reply should be a number in %, with the unit left off.

Here is how some molecules turned out for %Inh.
MOLECULE | UNITS SYMBOL | NUMERIC VALUE
O=C(Nc1n[nH]c2cc(-c3ccsc3)ccc12)C1CC1 [SB-732932] | % | 26
CC[C@@H]1CO[C@H](C(=O)Nc2ccccc2)CN1c1cc(-c2ccc3c(N)n[nH]c3c2)nc(NC)n1 [GSK2376236] | % | 0
COc1ccc(-c2coc3ccc(-c4nnc(C)o4)cc23)cc1 | % | 0

Let me check: CCn1c(-c2ccccc2)nc2cnccc21 [SB-733416] , system HIPK2, measured %Inh is 0

---

test system: JNK2; construct: gene MAPK9; settings: concentration: 1 μM, replicates: in singlicate; n = 1
Each entry below carries its reported %Inh.
Form entry: value (%) — number only.

MOLECULE | %Inh (%)
COC(=O)c1cccc(NC(=O)NC2CCN(c3ccnc(Nc4ccc(F)cc4)n3)C2)c1 (stereo not drawn) | 28
Cc1c(Cn2c(C)c(C)n3c(=O)cc(N4CCOCC4)nc23)cccc1C(F)(F)F | 0
COc1ccc2cc(-c3nc(-c4ccccc4C(C)C)[nH]c3-c3ccncc3)ccc2c1 | 44
Cc1ccccc1Cn1ccn2c(=O)cc(N3CCOCC3)nc12 | 20
c1ccc(-c2ccnc3[nH]ccc23)cc1 | 0
COc1ccc(Nc2nccc(N3CCC(NC(=O)c4cc5ccccc5s4)C3)n2)cc1 (stereo not drawn) | 10
COC(=O)C(Cc1ccccc1)NC(=O)NC1CCN(c2ccnc(Nc3ccc(F)cc3)n2)C1 (stereo not drawn) | 1
CS(=O)(=O)CCNCc1nc(-c2ccc3ncnc(Nc4ccc(OCc5ccccc5)c(Cl)c4)c3c2)cs1.Cl | 0

Attention now turns to another entry.
GET /value?item= CCCCc1nn2ncccc2c1-c1ccnc(NC2CC2)n1 &field=%Inh returns 84

Data provenance: paper PMC5540273
